Origin of the recorded values: the RNAGym collection of RNA variant scans (doi:10.7554/elife.90254)

B1: LINE1-mini (parent)
chain: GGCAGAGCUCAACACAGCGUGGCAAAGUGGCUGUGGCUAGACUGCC

variants of: B1; assay: self-cleavage, relative activity (ratio to wild type); higher = more cleavage; in vitro, sequencing; the parent is a self-cleaving ribozyme
Please use the following self-cleavage ranges when assigning a class: low range = under 0.06, mid range = from 0.06 up to 0.2, high range = 0.2 and over

Some entries whose results are on file:
>>> df
                           sequence_content      label
0  GGCAGAGCCCAACACAGCGUGGCAAAGUGGCUGUGGCUCGACUGCC [U9C A39C]  low range
1  GGCAGAGCUCAACACAGCGUGGCAACGUGGUUGUGGCUAGACUGCC [A26C C31U]  mid range
2  GGCUGAGCUCAACACAGCGUGGCAAAGUGGAUGUGGCUAGACUGCC [A4U C31A]  low range

Q) Which category fits this record: GGCAGAGCUCAACACAGCGGGGCAAAGUGGAUGUGGCUAGACUGCC [U20G C31A]
A) mid range

Q) Which category fits this record: GGCAGAGCUCAACACAGCGUGGCAAGGUGGCUGUGGCUAGACUUCC [A26G G44U]
A) high range
